- Tested on: P. falciparum stage V gametocytes
- Design: BacTiter-Glo ATP luminescence viability of purified stage V gametocytes in 384-well plates, per cent inhibition versus DMSO
- CONDITION DESCRIPTION: 48 h, 5 µM; inhibitor
About 3,200 (25%) of roughly 13,000 compounds showed an effect of 50% or more. The list shows a part of the results.
READOUT LABEL: % Inhibition (%)
Kindly answer with a numeric value in %, unit omitted.

[Q] Fill in: % Inhibition of CCOC(=O)[C@H](Cc1cccc2ccccc12)NC(=O)[C@H](CCC(=O)OC(C)(C)C)NC(=O)c1ccc(N(C)Cc2cnc3nc(N)nc(N)c3n2)cc1 [TCMDC-137288] is ___
[A] 41.06

[Q] Fill in: % Inhibition of COc1ccc2nccc([C@@H](O)CN3CCC(NCc4cc5oc(=O)[nH]c5cc4F)CC3)c2c1 [TCMDC-141140] is ___
[A] 3.08

[Q] Fill in: % Inhibition of O=C(O)C[C@H](NC(=O)[C@@H]1CCCN1C(=O)c1cccc(-c2ccc(Cl)c(Cl)c2)c1)C(=O)O [TCMDC-140511] is ___
[A] 4.214

[Q] Fill in: % Inhibition of COc1ccc2ncc(Cl)c(CCN3CC[C@@H](CNCc4cc5c(cn4)OCS5)C3)c2n1 [TCMDC-135904] is ___
[A] -4.396
